# System: S. epidermidis
# run.description: In vitro MIC testing, antibacterial spectrum of activity
# Format: cell-based, Staphylococcus epidermidis
# setup.conditions: Staphylococcus epidermidis; S. epidermidis [MRSE] (32 isolates); read-out: MIC50
value.type: MIC50 (µg/mL)

* Cc1onc(-c2ccccc2)c1C(=O)N[C@@H]1C(=O)N2[C@@H]1SC(C)(C)[C@@H]2C(=O)O | 32
* CON(C)Cc1ccc(O)c2c1C[C@H]1C[C@H]3[C@H](N(C)C)C(O)=C(C(N)=O)C(=O)[C@@]3(O)C(O)=C1C2=O | 0.5
* CN(C)c1ccc(O)c2c1C[C@H]1C[C@H]3[C@H](N(C)C)C(O)=C(C(N)=O)C(=O)[C@@]3(O)C(O)=C1C2=O | 0.12
* C[C@H]1c2cccc(O)c2C(=O)C2=C(O)[C@]3(O)C(=O)C(C(N)=O)=C(O)[C@@H](N(C)C)[C@@H]3[C@@H](O)[C@@H]21 | 0.5
